test system: PPARg:RXRa IVT, anti-PPARg (NR concentration 270 nM, RXRa partner concentration 90 nM); experiment: PBM binding z-score (relative to random genomic background probes); higher = stronger binding; sequences stand for … in GC…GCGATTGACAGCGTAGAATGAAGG
observedProperty: PBM binding z-score
// return a plain number; no unit text

Previously resolved entries follow.
{"sequenceContent": "TTACCAAGGTGAACGTCGTTGATCCCTCTGTAGA", "PBM binding z-score": 3.17}
{"sequenceContent": "AGAATGAGTTTAAGATCAGGGAAACAGAATACAT", "PBM binding z-score": -0.227}
{"sequenceContent": "ACAGACAGGTGATGAAGTTAACTCAGGCTATCAT", "PBM binding z-score": 0.266}
{"sequenceContent": "TCTAGTTGGTCAAAGGTCACACATTCGAAATGCG", "PBM binding z-score": 6.33}
{"sequenceContent": "CCTGCTAGGTCAATGGTCAGCGAAAGCAGCTCGC", "PBM binding z-score": 4.06}
{"sequenceContent": "ACAGACAGGTGATGATGGTAACTCAGGCTATCAT", "PBM binding z-score": 0.395}
{"sequenceContent": "CGTCCAAGGTGAGAGAGGTCAGTGAATGCCGAGT", "PBM binding z-score": 2.49}
{"sequenceContent": "AGTCATAGTTCATCTAGGTAACGTAAGATATGCT", "PBM binding z-score": 2.74}
{"sequenceContent": "AATACAGGGTCACTAGGACAGAGTAGGTACGAAT", "PBM binding z-score": 5.7}
{"sequenceContent": "CAAACTAGGTCACAGAGGTCAATGTCCGTGCGTA", "PBM binding z-score": 9.05}

PBM binding z-score for PPARg:RXRa IVT, anti-PPARg (NR concentration 270 nM, RXRa partner concentration 90 nM) with input CCTACAGGGTCAGCTAGGCCAGAGTAGGGACGGC equals 1.44

The sequence TCTCGGATGACACGAAGGTCAGAGCTTTCCAGAG , when measured on PPARg:RXRa IVT, anti-PPARg (NR concentration 270 nM, RXRa partner concentration 90 nM), yielded PBM binding z-score of 0.539

Entry CTTCCAAGGTCAATGCTAGGTCAGTGAAAGCATT , PPARg:RXRa IVT, anti-PPARg (NR concentration 270 nM, RXRa partner concentration 90 nM) data, PBM binding z-score value: 4.08

Entry AGAACGAGGGCACGCTAAGTTGATAGCAGAGTAG , tested on PPARg:RXRa IVT, anti-PPARg (NR concentration 270 nM, RXRa partner concentration 90 nM), has a reported PBM binding z-score of 3.93

Entry TATACAGGGTCAAAGGCCAGAATACGAATGTCGA ; assay system PPARg:RXRa IVT, anti-PPARg (NR concentration 270 nM, RXRa partner concentration 90 nM); PBM binding z-score recorded at 4.81
